Assay: Relaxation rate measurement (R1, R2) in PBS and in PBS solution of HSA
Format: physicochemical
Settings: PBS solution of 0.67 mM HSA, 64 MHz, 293K
Listed below: R2 in 0.67 mM HSA values for each entry.
Please respond with the number in mM⁻¹ s⁻¹ and leave the unit unwritten.

| COMPOUND | R2 in 0.67 mM HSA, mM⁻¹ s⁻¹ |
| --- | --- |
| CNC[C@H](O)[C@@H](O)[C@H](O)[C@H](O)CO.O=C([O-])CN1CCN(CC(=O)[O-])CCN(CC(=O)O)CCN(CC(=O)[O-])CC1.[Gd+3] [Dotarem, Gd-DOTA, reference compound] | 4.30 |
| O=C([O-])CN1CCN(CC(=O)[O-])CCN(CC(=O)NCC2CCCCC2)CCN(CC(=O)[O-])CC1.[Gd+3] | 6.22 |
| NCCNC(=O)C1CCC(CNC(=O)CN2CCN(CC(=O)[O-])CCN(CC(=O)[O-])CCN(CC(=O)[O-])CC2)CC1.[Gd+3] (stereo not shown) | 4.10 |
| NC1CCC(NC(=O)CN2CCN(CC(=O)[O-])CCN(CC(=O)[O-])CCN(CC(=O)[O-])CC2)CC1.[Gd+3] (stereo not shown) | 4.07 |
| O=C([O-])CN1CCN(CC(=O)[O-])CCN(CC(=O)NCC2CCC(C(=O)O)CC2)CCN(CC(=O)[O-])CC1.[Gd+3] (stereo not shown) | 5.43 |
| O=C([O-])CN1CCN(CC(=O)[O-])CCN([C@H](CO)[C@H](O)CO)CCN(CC(=O)[O-])CC1.[Gd+3] (racemic) [Gadovist, Gd-BT-DO3A, reference compound] | 5.54 |

Consider the additional compound presented here.
R2 in 0.67 mM HSA for CCOC(=O)C1CCC(CNC(=O)CN2CCN(CC(=O)[O-])CCN(CC(=O)[O-])CCN(CC(=O)[O-])CC2)CC1.[Gd+3] (stereo not shown) is 6.04
